FYI, the data here is from ChEMBL document CHEMBL5512625.

biological target: Replicase polyprotein 1ab (Severe acute respiratory syndrome coronavirus 2, UniProt P0DTD1); assay: Binding affinity to NT650-labeled recombinant SARS CoV-2 MPro assessed as protein stability by measuring dissociation constant by MST analysis
assay-metric: Kd (µM)

1. COc1ccc2c(c1)c(CC(=O)O)c(C)n2C(=O)c1ccc(Cl)cc1 ... 129

---

assay: Cytotoxicity against African green monkey Vero cells; format: toxicity, cell-based; details: chlorocebus sabaeus
assay-metric: CC50

1) CC(C)(C)NC(=O)N[C@H](C(=O)N1C[C@H]2[C@@H]([C@H]1C(=O)NC(CC1CCC1)C(=O)C(N)=O)C2(C)C)C(C)(C)C (stereo partly specified) [BOCEPREVIR] ... > 500 µM

---

Entries and their solubility kinetic at 1.5 h values follow.
test: Kinetic solubility in universal buffer incubated for 90 mins by microplate shaker method; type: physicochemical; conditions: universal buffer, read-out: Kinetic_solubility
assay-metric: solubility kinetic at 1.5 h (µM)

1. COc1ccc2c(c1)c(CC(=O)NCCN1CCN(CCOCCOCC(=O)N[C@H](C(=O)N3C[C@H](O)C[C@H]3C(=O)N[C@@H](C)c3ccc(-c4scnc4C)cc3)C(C)(C)C)CC1)c(C)n2C(=O)c1ccc(Cl)cc1 ... 26
2. COc1ccc2c(c1)c(CC(=O)NCCN1CCN(C(=O)CCC(=O)N[C@H](C(=O)N3C[C@H](O)C[C@H]3C(=O)N[C@@H](C)c3ccc(-c4scnc4C)cc3)C(C)(C)C)CC1)c(C)n2C(=O)c1ccc(Cl)cc1 ... 6
3. COc1ccc2c(c1)c(CC(=O)NCCCN1CCN(CCCNC(=O)CCC(=O)N[C@H](C(=O)N3C[C@H](O)C[C@H]3C(=O)N[C@@H](C)c3ccc(-c4scnc4C)cc3)C(C)(C)C)CC1)c(C)n2C(=O)c1ccc(Cl)cc1 ... 9.4
4. COc1ccc2c(c1)c(CC(=O)N1CCN(CCOCCOCC(=O)N[C@H](C(=O)N3C[C@H](O)C[C@H]3C(=O)N[C@@H](C)c3ccc(-c4scnc4C)cc3)C(C)(C)C)CC1)c(C)n2C(=O)c1ccc(Cl)cc1 ... 7.7

---

Entries and their half-life values follow.
experiment: Metabolic stability in human liver microsomes assessed as half life measured upto 60 mins by LC/MS-MS analysis; format: ADME, Microsome
assay-metric: half-life

1. COc1ccc2c(c1)c(CC(=O)NCCN1CCN(C(=O)CCC(=O)N[C@H](C(=O)N3C[C@H](O)C[C@H]3C(=O)N[C@@H](C)c3ccc(-c4scnc4C)cc3)C(C)(C)C)CC1)c(C)n2C(=O)c1ccc(Cl)cc1 ... > 1 h
2. COc1ccc2c(c1)c(CC(=O)N1CCN(CC(=O)N[C@H](C(=O)N3C[C@H](O)C[C@H]3C(=O)N[C@@H](C)c3ccc(-c4scnc4C)cc3)C(C)(C)C)CC1)c(C)n2C(=O)c1ccc(Cl)cc1 ... > 1 h

---

assay: Cytotoxicity against human Calu-3 cells incubated for 72 hrs by MTT assay; format: toxicity, cell-based
assay-metric: CC50 at 72 h

1) COc1ccc2c(c1)c(CC(=O)N1CCN(CC(=O)N[C@H](C(=O)N3C[C@H](O)C[C@H]3C(=O)N[C@@H](C)c3ccc(-c4scnc4C)cc3)C(C)(C)C)CC1)c(C)n2C(=O)c1ccc(Cl)cc1 ... > 125 µM

---

test system: Human coronavirus 229E; assay: Antiviral activity against HCoV-229E infected in human MRC5 cells incubated for 3 days by plaque reduction assay; type: functional, organism-based; conditions: MRC5, 72 h
assay-metric: EC50 (µM)

1. COc1ccc2c(c1)c(CC(=O)N1CCN(CC(=O)N[C@H](C(=O)N3C[C@H](O)C[C@H]3C(=O)N[C@@H](C)c3ccc(-c4scnc4C)cc3)C(C)(C)C)CC1)c(C)n2C(=O)c1ccc(Cl)cc1 ... 6.5

---

Entries and their CC50 at 72 h values follow.
test: Cytotoxicity against human MRC5 cells assessed as reduction in cell viability incubated for 72 hrs by MTT assay; type: toxicity, cell-based
assay-metric: CC50 at 72 h (µM)

1. COc1ccc2c(c1)c(CC(=O)NCCN1CCN(CCOCCOCC(=O)N[C@H](C(=O)N3C[C@H](O)C[C@H]3C(=O)N[C@@H](C)c3ccc(-c4scnc4C)cc3)C(C)(C)C)CC1)c(C)n2C(=O)c1ccc(Cl)cc1 ... 12.3
2. COc1ccc2c(c1)c(CC(=O)N1CCN(CCC(=O)N[C@H](C(=O)N3C[C@H](O)C[C@H]3C(=O)N[C@@H](C)c3ccc(-c4scnc4C)cc3)C(C)(C)C)CC1)c(C)n2C(=O)c1ccc(Cl)cc1 ... 13.5
3. COc1ccc2c(c1)c(CC(=O)N1CCN(CCOCCOCC(=O)N[C@H](C(=O)N3C[C@H](O)C[C@H]3C(=O)N[C@@H](C)c3ccc(-c4scnc4C)cc3)C(C)(C)C)CC1)c(C)n2C(=O)c1ccc(Cl)cc1 ... 22

---

assay: Cytotoxicity against African green monkey Vero cells assessed as reduction in cell viability incubated for 72 hrs by MTT assay; assay type: toxicity, cell-based; conditions: chlorocebus sabaeus
assay-metric: CC50 at 72 h

1) COc1ccc2c(c1)c(CC(=O)NCCN1CCN(C(=O)CCC(=O)N[C@H](C(=O)N3C[C@H](O)C[C@H]3C(=O)N[C@@H](C)c3ccc(-c4scnc4C)cc3)C(C)(C)C)CC1)c(C)n2C(=O)c1ccc(Cl)cc1 ... > 250 µM
2) COc1ccc2c(c1)c(CC(=O)N1CCN(CC(=O)N[C@H](C(=O)N3C[C@H](O)C[C@H]3C(=O)N[C@@H](C)c3ccc(-c4scnc4C)cc3)C(C)(C)C)CC1)c(C)n2C(=O)c1ccc(Cl)cc1 ... > 125 µM
3) COc1ccc2c(c1)c(CC(=O)NCCCCCCC(=O)N[C@H](C(=O)N1C[C@H](O)C[C@H]1C(=O)N[C@@H](C)c1ccc(-c3scnc3C)cc1)C(C)(C)C)c(C)n2C(=O)c1ccc(Cl)cc1 ... > 200 µM
4) COc1ccc2c(c1)c(CC(=O)N1CCN(CCCCCC(=O)N[C@H](C(=O)N3C[C@H](O)C[C@H]3C(=O)N[C@@H](C)c3ccc(-c4scnc4C)cc3)C(C)(C)C)CC1)c(C)n2C(=O)c1ccc(Cl)cc1 ... > 125 µM
5) COc1ccc2c(c1)c(CC(=O)NCCCCNc1cc3c(cc1F)C(=O)N(C1CCC(=O)NC1=O)C3=O)c(C)n2C(=O)c1ccc(Cl)cc1 (stereo unspecified) ... > 125 µM
6) COc1ccc2c(c1)c(CC(=O)NCCCCCCCCCCNc1cc3c(cc1F)C(=O)N(C1CCC(=O)NC1=O)C3=O)c(C)n2C(=O)c1ccc(Cl)cc1 (stereo unspecified) ... > 125 µM

---

assay: Cytotoxicity against human MRC5 cells assessed as reduction in cell viability incubated for 72 hrs by MTT assay; assay type: toxicity, cell-based
Entries and their CC50 at 72 h values follow.
assay-metric: CC50 at 72 h

1. COc1ccc2c(c1)c(CC(=O)N1CCN(CCCCCC(=O)N[C@H](C(=O)N3C[C@H](O)C[C@H]3C(=O)N[C@@H](C)c3ccc(-c4scnc4C)cc3)C(C)(C)C)CC1)c(C)n2C(=O)c1ccc(Cl)cc1 ... 20 µM
2. COc1ccc2c(c1)c(CC(=O)N1CCN(CC(=O)N[C@H](C(=O)N3C[C@H](O)C[C@H]3C(=O)N[C@@H](C)c3ccc(-c4scnc4C)cc3)C(C)(C)C)CC1)c(C)n2C(=O)c1ccc(Cl)cc1 ... > 125 µM
3. COc1ccc2c(c1)c(CC(=O)NCCCN1CCN(CCCNC(=O)CCC(=O)N[C@H](C(=O)N3C[C@H](O)C[C@H]3C(=O)N[C@@H](C)c3ccc(-c4scnc4C)cc3)C(C)(C)C)CC1)c(C)n2C(=O)c1ccc(Cl)cc1 ... > 125 µM
